- assay.target: full length recombinant Pim-2 protein (Homo sapiens)
- Construct: by full length recombinant Pim-1, Pim-2, or Pim-3 protein; hexahistidine tag followed by a thrombin cleavage site (N); made in house; host or cells: Sf9 (baculovirus) or E. coli (pET28)
- Sequence (Q9P1W9 whole entry): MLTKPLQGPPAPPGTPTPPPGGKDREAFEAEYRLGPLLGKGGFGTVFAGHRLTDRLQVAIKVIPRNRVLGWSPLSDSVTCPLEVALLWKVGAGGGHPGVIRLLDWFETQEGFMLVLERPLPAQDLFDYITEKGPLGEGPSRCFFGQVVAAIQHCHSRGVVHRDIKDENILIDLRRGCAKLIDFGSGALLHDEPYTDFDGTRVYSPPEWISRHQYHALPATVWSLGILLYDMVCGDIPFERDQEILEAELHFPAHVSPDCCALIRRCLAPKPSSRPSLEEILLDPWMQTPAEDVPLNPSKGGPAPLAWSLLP
- experiment.notes: Pim-2 enzyme assay (HTRF, phosphorylation of biotinylated-BAD (S112) peptide)
- Type: biochemical
- applied.conditions: enzyme assay, Pim-2; read-out: Pim2_IC50
IC50 values, listed per item

| structure.string | assay.target | qualifier.sign | IC50, µM |
| --- | --- | --- | --- |
| CC(C)Oc1cncc(-c2ccc3[nH]cc(-c4ccc(F)cn4)c3c2)n1 | full length recombinant Pim-2 protein (Homo sapiens) | > | 3 |
| CC(C)Oc1cccc(-c2ccc3[nH]nc(-c4cncc(O[C@@H]5CCCNC5)n4)c3c2)c1 | full length recombinant Pim-2 protein (Homo sapiens) | = | 0.084 |
| NC1CCN(c2cncc(-c3n[nH]c4ccc(-c5cc(C(=O)NC6CC6)ccc5F)cc34)n2)CC1 | full length recombinant Pim-2 protein (Homo sapiens) | = | 0.013 |
| CN1C(=O)Cc2cc(-c3ccc4[nH]nc(-c5cncc(N6CCC(N)CC6)n5)c4c3)ccc21 | full length recombinant Pim-2 protein (Homo sapiens) | = | 0.087 |
| Fc1cccc(F)c1-c1ccc2[nH]cc(-c3cncc(N[C@@H]4CCCNC4)n3)c2c1 | full length recombinant Pim-2 protein (Homo sapiens) | = | 0.011 |
| c1cc(C2CC2)cc(-c2ccc3[nH]nc(-c4cncc(O[C@@H]5CCCNC5)n4)c3c2)n1 | full length recombinant Pim-2 protein (Homo sapiens) | = | 0.435 |
| Fc1cccc(F)c1-c1ccc2[nH]cc(-c3nccc(O[C@@H]4CCCNC4)n3)c2c1 | full length recombinant Pim-2 protein (Homo sapiens) | = | 0.089 |
| CCN(CC)C(=O)c1cccc(-c2ccc3[nH]nc(-c4cncc(N5CCC(N)CC5)n4)c3c2)c1F | full length recombinant Pim-2 protein (Homo sapiens) | = | 0.29 |

----------
- assay.target: full length recombinant Pim-3 protein (Homo sapiens)
- Construct: by full length recombinant Pim-1, Pim-2, or Pim-3 protein
- experiment.notes: Pim-3 enzyme assay (HTRF, phosphorylation of biotinylated-BAD (S112) peptide)
- applied.conditions: read-out: Pim3 IC50
pIC50: −log10 of the molar value.
pIC50 listing for selected compounds.

| compound | assay.target | pIC50 |
| --- | --- | --- |
| NC1CCN(c2cncc(-c3n[nH]c4ccc(-c5cccc(F)c5F)cc34)n2)CC1 [Example 71] | full length recombinant Pim-3 protein (Homo sapiens) | 9.00 |
| FC(F)(F)Oc1cccc(-c2ccc3[nH]nc(-c4cncc(O[C@@H]5CCCNC5)n4)c3c2)c1 [Example 150] | full length recombinant Pim-3 protein (Homo sapiens) | 7.54 |
| NC1CCN(c2cncc(-c3n[nH]c4ccc(-c5cccc(O)c5)cc34)n2)CC1 [Example 78] | full length recombinant Pim-3 protein (Homo sapiens) | 9.00 |

----------
Attribute: pIC50
- assay.target: Pim-1 stably transfected into the U2OS human osteogenic sarcoma line (Homo sapiens)
- Construct: expressed in transfected cells; host or cells: U2OS human osteogenic sarcoma line
- Sequence (P11309 whole entry): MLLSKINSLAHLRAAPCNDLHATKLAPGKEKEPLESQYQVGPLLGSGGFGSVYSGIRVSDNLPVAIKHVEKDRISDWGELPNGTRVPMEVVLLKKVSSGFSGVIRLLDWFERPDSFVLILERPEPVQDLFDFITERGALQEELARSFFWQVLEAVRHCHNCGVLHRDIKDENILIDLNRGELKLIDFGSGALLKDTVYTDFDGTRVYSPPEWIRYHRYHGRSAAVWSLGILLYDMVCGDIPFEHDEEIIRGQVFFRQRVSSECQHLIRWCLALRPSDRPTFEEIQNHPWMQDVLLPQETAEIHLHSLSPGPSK
- experiment.notes: Pim cell assay, phospho-BAD normalized against total BAD, U2OS stably transfected with Pim-1
- Format: cell-based
- applied.conditions: read-out: Pim1_Cell_IC50
pIC50: −log10 of the molar value.
endpoint: pIC50

| compound | qualifier.sign | experimental.value |
| --- | --- | --- |
| CC(C)Oc1cncc(-c2ccc3[nH]cc(-c4csc(-n5ccccc5=O)n4)c3c2)n1 [Example 227] | < | 4.80 |
| NC1CCN(c2cncc(-c3c[nH]c4ccc(-c5ccccc5F)nc34)c2)CC1 [Example 34] | = | 5.99 |
| CC(C)Oc1cncc(-c2ccc3[nH]cc(-c4csc(-n5ccnc5)n4)c3c2)n1 [Example 228] | = | 5.47 |
| O=C1CN(c2cncc(-c3c[nH]c4ccc(-c5c(F)cccc5F)cc34)n2)CCN1 [Example 204] | = | 5.65 |
| NC1CCN(c2cncc(-c3c[nH]c4ccc(-c5c(F)cccc5F)nc34)c2)CC1 [Example 32] | = | 6.04 |
| Fc1cccc(F)c1-c1ccc2[nH]cc(-c3nccc(OC4CCNCC4)n3)c2c1 [Example 211] | = | 5.42 |
| CC(C)Oc1cncc(-c2ccc3[nH]cc(-c4cncc(N5CCOCC5)n4)c3c2)n1 [Example 225] | = | 5.83 |
| CC(C)Oc1cncc(-c2ccc3[nH]cc(-c4cncc(O[C@@H]5CCCNC5)n4)c3c2)n1 [Example 213] | = | 5.86 |
